Test system: SK-OV-3 ovarian
Experiment: NCI-60 one-dose screen, 48 h
Settings: 10 µM unless noted
The panel holds about 83,000 compounds, 20% with a hit somewhere; the sample as a whole holds those more often. Active and inactive are the calls of the source. The calls were made as follows: active = growth percent below 10; inactive = the rest.
Return exactly one item of active, inactive

Answered examples (4):
molecule | measurement.target | class.assignment
N/C(=N\O)c1ncc(-c2ccc(C(F)(F)F)cc2)c(NC2CCCCCC2)n1 | SK-OV-3 ovarian | active
O=C(Nc1ccc(-n2ccc3c(NC(=O)c4ccccc4)nccc32)cc1)c1ccc(N2CCOCC2)c(C(F)(F)F)c1 | SK-OV-3 ovarian | inactive
CCC1N=C(N)N=C(N)N1c1ccc(Cl)cc1 (stereo unspecified) | SK-OV-3 ovarian | inactive
CC1(C)CC(=O)c2cc3c(N)c(C(=O)Nc4ccc(Cl)cc4)sc3nc2C1 | SK-OV-3 ovarian | inactive

[in] Field: outcome | Entry: O=S(=O)(Nc1ccc2ccccc2c1)N1CCCCC1
[out] inactive

[in] Field: outcome | Entry: CCN(CC)c1cc(C)c(Cc2c(OC)ccc3ccccc23)cc1C
[out] inactive

[in] Field: outcome | Entry: CC(C)c1cccc(C#N)c1
[out] inactive
